Attribute: IC50 (µg/ml), inhibitory activity of anti-Trop-2 ADCs on cell growth, BxPC-3 cells
Target: T1, human Trop-2 on the surface of cells (CHO/Trop-2 cells; BxPC-3 cells; NCI-N87 cells) (human, UniProt P09758 27-323)
T1 sequence (looked up): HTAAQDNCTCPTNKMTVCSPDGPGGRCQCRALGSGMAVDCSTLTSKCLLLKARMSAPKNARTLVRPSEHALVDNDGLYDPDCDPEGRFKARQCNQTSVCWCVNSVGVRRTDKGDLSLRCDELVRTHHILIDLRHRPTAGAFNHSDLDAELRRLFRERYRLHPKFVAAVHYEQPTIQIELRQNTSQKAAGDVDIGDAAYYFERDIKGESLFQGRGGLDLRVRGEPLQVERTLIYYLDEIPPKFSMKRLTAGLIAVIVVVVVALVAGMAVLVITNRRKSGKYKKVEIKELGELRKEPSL
Experiment: cell-based or functional assay
Provide the reading as a plain figure in µg/mL.

Completed entries (count: 2):
{"binder": "ch11-4-SN38 (antibody, V domains shown, CL2A-SN-38 conjugated to the DTT-reduced antibody; 7.5 SN38 per antibody; sites not stated, also called ch11-4 labeled with SN38) VH: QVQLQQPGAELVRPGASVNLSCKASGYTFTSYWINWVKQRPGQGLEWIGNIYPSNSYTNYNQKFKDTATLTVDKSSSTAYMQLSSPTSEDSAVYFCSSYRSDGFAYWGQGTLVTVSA VL: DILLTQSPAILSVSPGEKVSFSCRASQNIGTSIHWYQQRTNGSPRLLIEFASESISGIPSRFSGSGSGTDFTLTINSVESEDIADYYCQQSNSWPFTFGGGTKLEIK", "result value": 2.88}
{"binder": "h23-12-SN38 (antibody, human IgG1, kappa, V domains shown, CL2A-SN-38 conjugated to the DTT-reduced antibody; 7.5 SN38 per antibody; sites not stated, also called h23-12 labeled with SN38) VH: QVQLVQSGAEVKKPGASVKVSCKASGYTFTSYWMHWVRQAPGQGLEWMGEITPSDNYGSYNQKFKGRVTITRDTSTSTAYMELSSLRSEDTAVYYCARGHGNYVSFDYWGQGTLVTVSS VL: DIQMTQSPSSLSASVGDRVTITCRASQDISNYLNWYQQKPGKAPKLLIYYTSRLESGVPSRFSGSGSGTDFTLTISSLQPEDFATYFCQQGYTLPPYTFGQGTKLEIKR", "result value": 1.41}

Looking up ch4-3-SN38 (antibody, V domains shown, CL2A-SN-38 conjugated to the DTT-reduced antibody; 7.5 SN38 per antibody; sites not stated, also called ch4-3 labeled with SN38) VH: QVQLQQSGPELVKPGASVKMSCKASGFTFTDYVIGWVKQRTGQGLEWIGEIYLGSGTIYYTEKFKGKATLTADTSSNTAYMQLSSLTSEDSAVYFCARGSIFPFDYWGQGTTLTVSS VL: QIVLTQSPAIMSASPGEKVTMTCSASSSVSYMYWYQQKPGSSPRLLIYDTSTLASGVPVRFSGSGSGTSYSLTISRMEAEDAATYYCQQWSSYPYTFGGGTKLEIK , I see its IC50 (µg/ml), inhibitory activity of anti-Trop-2 ADCs on cell growth, BxPC-3 cells listed as 3.3

IC50 (µg/ml), inhibitory activity of anti-Trop-2 ADCs on cell growth, BxPC-3 cells reported for this binder Sacituzumab-SN38 (antibody, human IgG1, kappa, V domains shown, CL2A-SN-38 conjugated to the DTT-reduced antibody; 7.5 SN38 per antibody; sites not stated, also called Sacituzumab labeled with SN38) VH: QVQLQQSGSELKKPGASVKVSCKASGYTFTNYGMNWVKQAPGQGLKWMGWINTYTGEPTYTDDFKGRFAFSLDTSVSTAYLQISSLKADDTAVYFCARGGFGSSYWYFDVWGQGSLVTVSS VL: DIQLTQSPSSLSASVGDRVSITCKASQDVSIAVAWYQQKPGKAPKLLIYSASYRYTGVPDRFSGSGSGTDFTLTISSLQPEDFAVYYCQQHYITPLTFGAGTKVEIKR : 4.31
